# Measurement notes: Metabolic stability in human plasma assessed as compound remaining after 4 hrs
# Format: ADME, cell-free
# Measurement context: read-out: Stability
Endpoint label: remaining at 4 h (%)

N#C/C(=C\c1cn(CC(=O)O)c2ccccc12)C(=O)N1CCCc2ccccc21; 95
O=C(O)Cn1c2c(c3ccccc31)CN(C(=O)c1ccccc1)CC2; 90

* * *

# Measurement notes: Half life in human plasma
# Assay type: ADME, cell-free
Endpoint label: half-life

INPUT: Query: half-life; subject: `N#C/C(=C\c1cn(CC(=O)O)c2ccccc12)C(=O)N1CCCc2ccccc21`
OUTPUT: > 4 h

* * *

# Measurement notes: Terminal half life in Wistar rat at 10 mg/kg, po and 1 mg/kg, iv
# Format: ADME, organism-based
# Measurement context: in vivo, read-out: beta t1/2 (converted)
Endpoint label: half-life (h)

a. N#C/C(=C\c1cn(CC(=O)O)c2ccccc12)C(=O)N1CCCc2ccccc21
b. O=C(O)Cn1c2c(c3ccccc31)CN(C(=O)c1ccccc1)CC2
INPUT: # returns the entry with the larger half-life; inputs a and b Answer format: the label of the selected item.
OUTPUT: b

* * *

Target or system Prostaglandin E2 receptor EP2 subtype (Homo sapiens, UniProt P43116): recorded IC50 listed per item.

O=C(O)Cn1c2c(c3ccccc31)CN(C(=O)c1ccccc1)CC2; > 10 µM

Here is another compound to look at.
INPUT: Please report the recorded IC50 for `N#C/C(=C\c1cn(CC(=O)O)c2ccccc12)C(=O)N1CCCc2ccccc21` .
OUTPUT: > 10 µM

* * *

# Measurement notes: Intrinsic clearance in rat liver microsomes assessed per mg of protein
# Type: ADME, Microsome
# Measurement context: read-out: CLH
Endpoint label: microsomal CLint (µL/min/mg)
Write the answer as a number in µL/min/mg, unit excluded.

INPUT: Query: microsomal CLint; subject: `N#C/C(=C\c1cn(CC(=O)O)c2ccccc12)C(=O)N1CCCc2ccccc21`
OUTPUT: 32

* * *

# Tgt: Prostaglandin D2 receptor 2 (Homo sapiens, UniProt Q9Y5Y4)
# Measurement notes: Displacement of [3H]PGD2 from human CRTh2 receptor
Endpoint label: IC50 (nM)

Illustrative cases are given below, each with its answer.
CN(C(=O)/C(C#N)=C/c1cn(CC(=O)O)c2ccc(F)cc12)c1ccccc1; 10
O=C(O)Cn1c2c(c3ccccc31)CN(C(=O)c1ccccc1)CC2; 17
O=C(O)Cn1c2c(c3ccccc31)CC(C(=O)Nc1ccccc1)CC2 (racemic); 145

a. CN(C(=O)/C(C#N)=C/c1cn(CC(=O)O)c2ccccc12)c1ccccc1
b. N#C/C(=C\c1cn(CC(=O)O)c2ccccc12)C(=O)N1CCc2ccccc21
c. Cc1cccc2c1c(/C=C(\C#N)C(=O)N(C)c1ccccc1)cn2CC(=O)O
d. Cc1ccc2c(/C=C(\C#N)C(=O)N(C)c3ccccc3)cn(CC(=O)O)c2c1
e. O=C(O)Cn1c2c(c3ccccc31)CN(C(=O)Nc1ccccc1)CC2
INPUT: Ordering criterion: IC50; begin with the maximum. Hello, could you send the labels back in the order asked? Thank you.
OUTPUT: d, e, b, a, c

a. O=C(O)Cn1c2ccccc2c2cc(C(=O)Nc3ccccc3)ccc21
b. O=C(O)Cn1cc(/C=C/C(=O)Nc2ccccc2)c2ccccc21
INPUT: Exercise: compare a and b ; which one has the greater IC50? Answer format: the label of the selected item.
OUTPUT: b

* * *

# Tgt: Prostaglandin D2 receptor (Homo sapiens)
# Sequence (Q13258 whole entry): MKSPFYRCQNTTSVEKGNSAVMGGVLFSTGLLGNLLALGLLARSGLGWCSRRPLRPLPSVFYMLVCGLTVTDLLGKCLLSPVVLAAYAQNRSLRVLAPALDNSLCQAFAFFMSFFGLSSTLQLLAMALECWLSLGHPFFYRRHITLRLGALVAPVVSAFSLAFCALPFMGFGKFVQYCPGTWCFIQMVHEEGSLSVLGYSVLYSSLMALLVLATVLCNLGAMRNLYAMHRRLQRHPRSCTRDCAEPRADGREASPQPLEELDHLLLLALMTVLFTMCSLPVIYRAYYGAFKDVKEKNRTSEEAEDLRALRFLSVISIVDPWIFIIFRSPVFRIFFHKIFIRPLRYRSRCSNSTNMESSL
# Measurement notes: Inhibition of PGD2 binding to human DP1 receptor
Endpoint label: IC50 (µM)
Numeric answer only, unit µM assumed.

INPUT: Entry `N#C/C(=C\c1cn(CC(=O)O)c2ccccc12)C(=O)N1CCCc2ccccc21` : reported IC50 = ?
OUTPUT: 8.2

* * *

# Measurement notes: Metabolic stability in rat plasma assessed as compound remaining after 4 hrs
# Assay type: ADME, cell-free
# Measurement context: read-out: Stability
Endpoint label: remaining at 4 h (%)

O=C(O)Cn1c2c(c3ccccc31)CN(C(=O)c1ccccc1)CC2; 90
N#C/C(=C\c1cn(CC(=O)O)c2ccccc12)C(=O)N1CCCc2ccccc21; 90

* * *

# Tgt: Prostaglandin D2 receptor 2 (Homo sapiens, UniProt Q9Y5Y4)
# Sequence (Q9Y5Y4 whole entry): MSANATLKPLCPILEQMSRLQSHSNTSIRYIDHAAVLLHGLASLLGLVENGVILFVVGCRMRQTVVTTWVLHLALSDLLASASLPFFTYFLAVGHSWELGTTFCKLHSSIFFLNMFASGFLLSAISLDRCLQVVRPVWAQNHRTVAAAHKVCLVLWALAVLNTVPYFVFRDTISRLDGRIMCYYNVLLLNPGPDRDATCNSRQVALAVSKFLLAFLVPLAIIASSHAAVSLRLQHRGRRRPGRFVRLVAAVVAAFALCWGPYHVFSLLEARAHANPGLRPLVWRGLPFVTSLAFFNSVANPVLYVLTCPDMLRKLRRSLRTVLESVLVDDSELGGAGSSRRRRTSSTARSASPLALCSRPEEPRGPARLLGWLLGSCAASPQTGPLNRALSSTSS
# Measurement notes: Displacement of [3H]PGD2 from human CRTh2 receptor
pIC50: −log10 of the molar value.
Endpoint label: pIC50

Some solved entries appear below for comparison.
C/C(=C(/C#N)C(=O)Nc1ccccc1)c1cn(CC(=O)O)c2ccccc12; 6.29
N#C/C(=C\c1cn(CC(=O)O)c2ccccc12)C(=O)Nc1ccccc1; 6.37
CN(C(=O)/C(C#N)=C/c1cn(CC(=O)O)c2c(F)cccc12)c1ccccc1; 7.00
CN(C(=O)/C(C#N)=C/c1cn(CC(=O)O)c2c(Cl)cccc12)c1ccccc1; 7.30
N#C/C(=C\c1cn(CC(=O)O)c2ccccc12)C(=O)N1CCCc2ccccc21; 7.85

A. N#C/C(=C\c1cn(CC(=O)O)c2ccccc12)C(=O)N(Cc1ccccc1)c1ccccc1
B. Cc1ccc2c(c1)c(/C=C(\C#N)C(=O)N(C)c1ccccc1)cn2CC(=O)O
INPUT: Compare the recorded pIC50 of A and B ; state which is larger. Returns: label corresponding to the selected item.
OUTPUT: B

I. CN(C(=O)/C(C#N)=C/c1cn(CC(=O)O)c2cccc(Cl)c12)c1ccccc1
II. O=C(O)Cn1c2c(c3ccccc31)CN(C(=O)Cc1ccccc1)CC2
INPUT: Two entries are listed, I and II . Which one carries the higher pIC50? # reply format: chosen label
OUTPUT: I
(I: 8.30, II: 6.70)

* * *

# Tgt: Cytochrome P450 2D6 (Homo sapiens, UniProt P10635)
# Sequence (P10635 whole entry): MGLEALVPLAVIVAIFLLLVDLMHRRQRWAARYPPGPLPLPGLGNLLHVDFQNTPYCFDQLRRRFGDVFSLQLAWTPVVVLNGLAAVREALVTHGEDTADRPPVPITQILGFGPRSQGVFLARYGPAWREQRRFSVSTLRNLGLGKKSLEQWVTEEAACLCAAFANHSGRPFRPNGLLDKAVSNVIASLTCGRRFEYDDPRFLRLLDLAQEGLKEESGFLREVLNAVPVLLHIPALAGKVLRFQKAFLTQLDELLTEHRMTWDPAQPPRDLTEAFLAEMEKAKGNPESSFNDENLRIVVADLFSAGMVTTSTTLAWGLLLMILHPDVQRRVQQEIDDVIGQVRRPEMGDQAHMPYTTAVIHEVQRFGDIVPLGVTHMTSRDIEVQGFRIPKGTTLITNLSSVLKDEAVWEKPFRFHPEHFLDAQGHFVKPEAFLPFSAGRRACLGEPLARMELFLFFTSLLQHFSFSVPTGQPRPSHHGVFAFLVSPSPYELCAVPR
pIC50: −log10 of the molar value.
Endpoint label: pIC50

INPUT: What does the data say about its pIC50? Entry: `N#C/C(=C\c1cn(CC(=O)O)c2ccccc12)C(=O)N1CCCc2ccccc21`
OUTPUT: < 5.00

* * *

# Measurement notes: Clearance in Wistar rat at 10 mg/kg, po and 1 mg/kg, iv
# Type: ADME, organism-based
# Measurement context: in vivo
Endpoint label: clearance (L/h/kg)

A. O=C(O)Cn1c2c(c3ccccc31)CN(C(=O)c1ccccc1)CC2
B. N#C/C(=C\c1cn(CC(=O)O)c2ccccc12)C(=O)N1CCCc2ccccc21
INPUT: // which entry reports the smaller clearance, A or B ? Identify your pick by its label.
OUTPUT: A

* * *

# Measurement notes: Half life in rat plasma
# Format: ADME, cell-free
Endpoint label: half-life

INPUT: For the compound `N#C/C(=C\c1cn(CC(=O)O)c2ccccc12)C(=O)N1CCCc2ccccc21` , what half-life is on record?
OUTPUT: > 4 h

* * *

# Measurement notes: Oral bioavailability in Wistar rat at 10 mg/kg
# Assay type: ADME, organism-based
# Measurement context: in vivo
Endpoint label: bioavailability (%)

O=C(O)Cn1c2c(c3ccccc31)CN(C(=O)c1ccccc1)CC2; 14
N#C/C(=C\c1cn(CC(=O)O)c2ccccc12)C(=O)N1CCCc2ccccc21; 18

* * *

# Tgt: Prostaglandin D2 receptor 2 (Homo sapiens, UniProt Q9Y5Y4)
# Measurement notes: Antagonist activity at PGD2-induced human CRTh2 receptor activation expressed in HEK293 cells assessed as intracellular Ca2+ liberation by FLIPR assay
# Type: functional, cell-based
pIC50: −log10 of the molar value.
Endpoint label: pIC50

P. O=C(O)Cn1c2c(c3ccccc31)CN(C(=O)c1ccccc1)CC2
Q. N#C/C(=C\c1cn(CC(=O)O)c2ccccc12)C(=O)Nc1cccc(Br)c1
INPUT: Higher pIC50 between P and Q ? Please reply using the label of the selected record.
OUTPUT: P
